system: NCI-H522 lung; test: NCI-60 one-dose screen, 48 h; settings: 10 µM unless noted
Compounds without any hit were thinned out: in the full panel of roughly 83,000, 20% have a hit. Activity calls are given as the source filed them. The calls were made as follows: active = growth percent below 10; inactive = the rest.
Outcome codes: active, inactive

COc1ccc2c(c1)CC[C@@H]1[C@@H]2CC[C@]2(C)c3c(cc(C#N)c4c3sc3ccccc34)C[C@@H]12; inactive
COc1ccc(-c2cc(C(=O)N3N=C(c4ccc(N)cc4)CC3c3ccc(Cl)cc3)c3cc(OC)ccc3n2)cc1 (stereo not drawn); inactive
COc1ccc(CN2C(=O)OC(C)(COC(C)=O)C2=O)cc1 (stereo not drawn); inactive
Cc1ccc2nc(-c3ccc(C(=O)N/N=C/c4ccc([N+](=O)[O-])cc4)cc3)[nH]c2c1; inactive
COC1C(O)CC(OC2CC(OC3CC(O[C@@H]4C(=O)c5c(cc6cc(OC7CC(OC8CC(O)C(O)C(C)O8)C(O)C(C)O7)c(C)c(O)c6c5O)CC4[C@H](OC)C(=O)O)OC(C)C3O)OC(C)C2O)OC1C (stereo partly drawn); active
CNC(=O)c1cc(Oc2ccc3c(c2)sc2nc(-c4ccc(NC(=O)[C@@H](NC(=O)OC)C(C)C)cc4)cn23)ccn1; inactive
Brc1ccc(Nc2nc(Nc3cnc4ccccc4c3)c3[nH]cnc3n2)cc1; inactive
CCOC(=O)c1c(C)nc2ccccc2c1/C=C/c1ccc(F)cc1; inactive
Cc1ncc(C(=O)Nc2ccc(CN3CCN(C)CC3)c(C(F)(F)F)c2)cc1C#Cc1cnc(N)c2ccc(C#N)cc12; inactive
COC(=O)c1nc(-c2ccccc2)oc1S(=O)(=O)N1CCCC(C)C1 (stereo not drawn); inactive
Clc1ccc2nn3c4ccccc4c(OCCN4CCOCC4)nc3c2c1; inactive
CN1c2ccccc2S(=O)(=O)n2c(SCC(=O)Nc3nc4ccc(F)cc4s3)nnc21; inactive
CCOC(=O)C1=C(CCl)N(C)C(=O)NC1c1ccc2c(c1)OCO2 (stereo not drawn); inactive
CC(=O)c1sc(-c2ccc(F)cc2)cc1O; inactive
COc1ccc2c(c1)C(C)Cc1c(ncnc1-n1cnc3cc(C)ccc31)N2C (stereo not drawn); inactive
C(=C(\C1=NCCN1)n1ccc2ccccc21)/c1ccccc1; inactive
COc1ccc(Nc2ncc(I)c(NCCCNC(=O)C3CCC3)n2)cc1; inactive
C=CC(CC(c1ccccc1)(c1ccccc1)c1ccccc1)N(CC)CC (stereo not drawn); inactive
COc1cc(/C=C/c2cn[nH]c2-c2ccc(C)cc2)cc(OC)c1OC; inactive
Cc1cc(N2CCN(CC(=O)Nc3ccc4c(ccn4Cc4ccccc4)c3)CC2)nc(N2CCOCC2)n1; inactive
O=C(Cn1nc(-c2cccc3ccccc23)ccc1=O)NCc1cccc(Cl)c1; inactive
O=c1oc2c(cc1-c1ccccc1)c(=O)[nH]c1ccccc12; inactive
O=C1/C(=C/c2ccc(Cl)cc2)CN(C(=O)C(Cl)Cl)C/C1=C\c1ccc(Cl)cc1; active
COC12C=C/C(=C(/C(=O)OCc3csc(SC)n3)C(=O)CCCCCCCCC3(OC)C=C/C(=C(/C(=O)OCc4cnc(SC)s4)C(=O)CCCCCCCC1)O3)O2 (stereo not drawn); inactive
COC(=O)/C=C1/SC(=Nc2ccc(F)cc2)N(CCc2c[nH]c3ccc(O)cc23)C1=O; inactive
CC1(C)CC(=O)C2=C(C1)C(c1ccc(Cl)cc1)n1ncc(C#N)c1N2 (stereo not drawn); inactive
C=CCN=c1sc(-c2ccc3ccccc3c2)cn1NC(=O)c1cc2ccc1CCc1ccc(cc1)CC2; inactive
CCCN(CCSSCCNc1nc(N(C)O)nc(N(C)O)n1)c1nc(N(C)O)nc(N(C)O)n1; inactive
NS(=O)(=O)c1ccc(C(=O)NN2C(=O)c3ccccc3C2=O)cc1; inactive
CSc1ccc2c3c(n(C[C@H](O)CO)c(=O)c2c1)-c1ccccc1C3=O; inactive
Cc1cc(O)cc(-c2nn(C)cc2-c2cc(N3CCOCC3)nc(-c3cccnc3)n2)c1; inactive
CCOC(=O)NC(=S)n1oc(=O)c2ccccc21; inactive
COc1ccc(C(c2cc(OC)c(OC)c(OC)c2)N2CCCCC2)cc1 (stereo not drawn); inactive
COc1ccc(/C=C2\c3cc(OC)c(OC)c(OC)c3CC[C@@H]2O)cc1F; active
CCN(CC)CCn1c2ccc(OC)cc2c2sc3cc(O)ccc3c(=O)c21; inactive
CC(=O)c1ccc(-n2cc(CN3CCN(c4cc5c(cc4F)c(=O)c(C(=O)O)cn5C4CC4)CC3)nn2)cc1; inactive
CN(C)c1ccc(C(=S)c2ccc(N(C)C)cc2)cc1; inactive
N#Cc1nn(-c2cc(=O)[nH]c3ccc(Br)cc23)c(N)c1C#N; inactive

Just for reference, PubChem BioAssay (NCI) is where these values come from.
